Test system: HCT116p53−/− (HCT116 with deleted p53 gene)
testMethodNotes: Cytotoxic MTS assay, HCT116p53−/−
Assay type: cell-based, human
For each record, write down the corresponding pIC50.
Schema: pIC50 number; meaning minus log10 of the concentration expressed in molar units.

Notebook: `COc1cc(OC)c(C(=O)OCCS(=O)(=O)c2cc[n+]([O-])c3cc(Cl)ccc23)cc1OC` , pIC50 read as 5.10

Notebook: `COc1ccc(C(=O)OCCCS(=O)(=O)c2cc[n+]([O-])c3cc(Cl)ccc23)cc1[N+](=O)[O-]` , pIC50 read as 5.30

Notebook: `COc1ccccc1C(=O)OCCS(=O)(=O)c1cc[n+]([O-])c2cc(Cl)ccc12` , pIC50 read as 5.08

Notebook: `COc1ccccc1C(=O)OCCCS(=O)(=O)c1cc[n+]([O-])c2cc(Cl)ccc12` , pIC50 read as 5.16

Notebook: `COc1cc(C(=O)OCCCS(=O)(=O)c2cc[n+]([O-])c3cc(Cl)ccc23)cc(OC)c1OC` , pIC50 read as 5.17

Notebook: `COc1cccc(C(=O)OCCS(=O)(=O)c2cc[n+]([O-])c3cc(Cl)ccc23)c1OC` , pIC50 read as 5.11

Notebook: `O=C(OCCCS(=O)(=O)c1cc[n+]([O-])c2cc(Cl)ccc12)c1ccc(C(F)(F)F)cc1` , pIC50 read as 5.18

Notebook: `COc1ccc(OC)c(C(=O)OCCS(=O)(=O)c2cc[n+]([O-])c3cc(Cl)ccc23)c1` , pIC50 read as 5.08

Notebook: `COc1cc(OC)c(C(=O)OCCCS(=O)(=O)c2cc[n+]([O-])c3cc(Cl)ccc23)cc1OC` , pIC50 read as 5.06

Notebook: `O=C(OCCS(=O)(=O)c1cc[n+]([O-])c2cc(Cl)ccc12)c1ccc(C(F)(F)F)cc1` , pIC50 read as 4.78

Notebook: `Cc1ccc([N+](=O)[O-])c(C(=O)OCCS(=O)(=O)c2cc[n+]([O-])c3cc(Cl)ccc23)c1` , pIC50 read as 5.06

Notebook: `COc1ccc(C(=O)OCCCS(=O)(=O)c2cc[n+]([O-])c3cc(Cl)ccc23)cc1` , pIC50 read as 5.65

Notebook: `Cc1ccc([N+](=O)[O-])c(C(=O)OCCCS(=O)(=O)c2cc[n+]([O-])c3cc(Cl)ccc23)c1` , pIC50 read as 5.22

Notebook: `Cc1cc(C)cc(C(=O)OCCCS(=O)(=O)c2cc[n+]([O-])c3cc(Cl)ccc23)c1` , pIC50 read as 5.32

Notebook: `COc1ccc(C(=O)OCCS(=O)(=O)c2cc[n+]([O-])c3cc(Cl)ccc23)cc1` , pIC50 read as 4.79

Notebook: `COc1ccc(C(=O)OCCS(=O)(=O)c2cc[n+]([O-])c3cc(Cl)ccc23)cc1[N+](=O)[O-]` , pIC50 read as 4.95

Notebook: `COc1ccc(OC)c(C(=O)OCCCS(=O)(=O)c2cc[n+]([O-])c3cc(Cl)ccc23)c1` , pIC50 read as 5.16
